Cited source for all entries: paper PMC6638984

Listed next: entries and their corresponding ΔH, event 1, two-site model.
- Measurement Target: T1, BS69CC-MYND (BS69 amino acid 480–602, CC-MYND domain) (Homo sapiens, UniProt Q15326)
- T1 construct: The BS69 CC-MYND domain (amino acids 480–602) was amplified from pCI-BS69; GST (N, cleaved yes); 6xHis (N, cleaved yes); made in house; host or cells: E. coli Rosetta 2 (DE3) pLysS
- T1 sequence (Q15326 480-602): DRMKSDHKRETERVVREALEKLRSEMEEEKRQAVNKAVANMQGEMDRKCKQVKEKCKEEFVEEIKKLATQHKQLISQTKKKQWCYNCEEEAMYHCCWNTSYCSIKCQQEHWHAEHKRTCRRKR
- Protocol Notes: Isothermal titration calorimetry (ITC) of EBNA2 peptides and polypeptides binding to BS69CC-MYND
- Condition Details: 29 injections, mean ± SD of 3 independent experiments
Give the number; kcal/mol is assumed, so skip it.

As a guide, the following entries are already answered.
{"Molecule": "EBNA2_348-422 SD + m3 T1: type 2 EBNA2 polypeptide 348–422 containing both the SD and motif 3 (PSIDP) mutations (protein, left off: His6, N-terminal, cleaved, type 2 EBNA2 polypeptide 348–422 containing both the SD and motif 3 (PSIDP) mutations) SMPQLSPVVSLHQGQGPENSPTPGPSTAGPVCRVTPSATPDISPIHEPESSDSEEPPFLFPDDWYPPSIDPAELD", "ΔH, event 1, two-site model (kcal/mol)": -32.1}
{"Molecule": "EBNA2_348-422 SD + m3 mt: type 2 EBNA2 polypeptide 348–422 containing both the SD and motif 3 (ATAEA) mutations (protein, left off: His6, N-terminal, cleaved, type 2 EBNA2 polypeptide 348–422 containing both the SD and motif 3 (ATAEA) mutations) SMPQLSPVVSLHQGQGPENSPTPGPSTAGPVCRVTPSATPDISPIHEPESSDSEEPPFLFPDDWYPATAEAAELD", "ΔH, event 1, two-site model (kcal/mol)": -31.7}
{"Molecule": "T2 EBNA2_348-422 SD: type 2 EBNA2 polypeptide 348–422 with an S409D mutation (protein, left off: His6, N-terminal, cleaved, type 2 EBNA2 polypeptide 348–422 with an S409D mutation) SMPQLSPVVSLHQGQGPENSPTPGPSTAGPVCRVTPSATPDISPIHEPESSDSEEPPFLFPDDWYPPTLEPAELD", "ΔH, event 1, two-site model (kcal/mol)": -22.7}

Noted for T2 EBNA2_348-422: type 2 EBNA2 polypeptide containing motif 1, 2 and 3, amino acids 348–422 (protein, left off: His6, N-terminal, cleaved) SMPQLSPVVSLHQGQGPENSPTPGPSTAGPVCRVTPSATPDISPIHEPESSDSEEPPFLFPSDWYPPTLEPAELD : its ΔH, event 1, two-site model reads -34.1
